Tested on: PC-3 prostate
test.protocol: NCI tumour cell line growth inhibition, 48 h; in the data active = GI50 below about 0.43 µM; inactive = the rest
Outcome codes: active, inactive

compound	system.name	discrete.label
C=C1C(=O)O[C@H]2[C@H]1CC/C(COC(=O)CCCCCC(=O)OC/C1=C/CC[C@@]3(C)O[C@H]3[C@H]3OC(=O)C(=C)[C@@H]3CC1)=C\CC[C@@]1(C)O[C@@H]21	PC-3 prostate	inactive
Fc1ccc(-c2ncn(C3CCNCC3)c2-c2ccnc(Oc3ccc4c(c3)OCO4)n2)cc1	PC-3 prostate	inactive
Cc1cn2c(/C=C3/C(=O)Nc4c3ccc3ccccc43)c(C(F)(F)F)nc2s1	PC-3 prostate	inactive
O=C(NCCN1CCOCC1)OCc1nc2nc(Cl)nc(N3CCOCC3)c2[nH]1	PC-3 prostate	inactive
COC(=O)c1cc(-c2ccccc2)[nH]c1N/N=C/c1c(Cl)cccc1Cl	PC-3 prostate	active
C/C(=C\c1ccn(-c2ccccc2N)n1)[C@@H]1C[C@@H]2O[C@]2(C)CCC[C@H](C)[C@H](O)[C@@H](C)C(=O)C(C)(C)[C@@H](O)CC(=O)O1	PC-3 prostate	active
Oc1c(C(Nc2ccccc2Br)c2ccccc2)ccc2cccnc12 (stereo not given)	PC-3 prostate	inactive
COc1cc2c3c(n(CCCN)c(=O)c2cc1OC)-c1ccc([N+](=O)[O-])cc1C3=O	PC-3 prostate	inactive
Cc1ccc(/C=C(\C#N)c2cc3ccccc3n2C)cc1	PC-3 prostate	active
CC(C)(C)c1ccc(C(O)CCCN2CCC(C(O)(c3ccccc3)c3ccccc3)CC2)cc1 (stereo not given)	PC-3 prostate	inactive
CCCCC(SC(=S)N1CCCC1)C(=O)Nc1nc(CC(=O)OCC)cs1 (stereo not given)	PC-3 prostate	inactive
COc1ccc(/C=C(/c2ccccc2)[N+](=O)[O-])c(OC)c1	PC-3 prostate	inactive
CO/N=C(\COc1ccc2c(=O)c3ccccc3oc2c1)c1ccccc1	PC-3 prostate	inactive
Cc1ccc2nc3ccccc3c(NCc3ccc(Cl)cc3)c2c1	PC-3 prostate	inactive
COc1ccc2c(c1)/C(=C\c1ccncc1)C(=O)N2	PC-3 prostate	inactive

----------
Tested on: SN12C renal
test.protocol: NCI tumour cell line growth inhibition, 48 h
Examples of compounds with documented TGI follow.

compound	unit.info	result.modifier	TGI
N#CC(CCN1CCC(Nc2ccccc2)(c2nnnn2C2CCCCC2)CC1)(c1ccccc1)c1ccccc1	µM	>	100
N#Cc1nc(-c2ccc(F)cc2)oc1S(=O)(=O)N1CCCCC1	µM	=	3.11
C=C1CC(CC)(CCN2C(=O)c3ccccc3C2=O)OC1=O (stereo not given)	µM	=	45.5
C[C@]12CC[C@H]3[C@@H](CCC4=CC(=O)C=C[C@@]43OC(=O)C(F)(F)F)[C@@H]1CCC2=O	µM	>	100
CC(=O)n1cc(C2CC23N=C(c2ccccc2)OC3=O)c2ccccc21 (stereo not given)	µM	=	31.9
COc1cc(/C=C2\CC/C(=C\c3cc(OC)c(O)c(OC)c3)C2=O)cc(OC)c1O	µM	>	29.3
CCC[CH2][Sn]([CH2]CCC)([O]C(=O)c1cc(OC)c(OC)cc1OC)[O][Sn]([CH2]CCC)([CH2]CCC)[O]C(=O)c1cc(OC)c(OC)cc1OC	µM	=	1.72
Cn1cnc(N)c(N=O)c1=O	µM	>	10
COc1cccc(N=N/C(=N/NC(=O)c2ccc(C)cc2)c2ccc(N(CCC#N)CCC#N)cc2OC)c1	µM	>	100
C=CCn1c(=S)sc2c(C(=O)OCC)c3c(C)cc(C)cn3c2c1=O	µM	>	100
